- Test system: Puccinia triticina
- assayDetails: Wheat brown rust (PUCCRT), disease control on wheat seedlings
- Format: in vivo
- condition: 72 h, low volume application at 121.5 g/H, 3 Day Curative, read-out: PUCCRT disease control, 3DC, LV activity
valueKind: pest or weed control at 121.5 g/ha

Before answering, review these 6 worked examples.
{"columns": ["compound", "valueKind", "testValue"],
 "data": [
  ["COc1ccnc(C(=O)N[C@@H](C)C(=O)O[C@@H](C)[C@@H](c2ccc(F)cc2C)C2CCCC2)c1OCOC(C)=O", "pest or weed control at 121.5 g/ha", "< 80%"],
  ["CCC(CC)[C@H](c1ccc(F)cc1OC)[C@H](C)OC(=O)[C@H](C)NC(=O)c1nccc(OC)c1OC(C)=O", "pest or weed control at 121.5 g/ha", "< 80%"],
  ["CCC(C)[C@H](c1ccc(F)cc1OC)[C@H](C)OC(=O)[C@H](C)NC(=O)c1nccc(OC)c1OC(C)=O (some centres unmarked)", "pest or weed control at 121.5 g/ha", "< 80%"],
  ["COc1ccnc(C(=O)N[C@@H](C)C(=O)O[C@H](C)[C@H](c2ccc(F)cc2C)C2CCCC2)c1OCOC(C)=O", "pest or weed control at 121.5 g/ha", "< 0%"],
  ["COc1ccnc(C(=O)N[C@@H](C)C(=O)O[C@@H](C)[C@H](c2ccc(F)cc2C)C(C)C)c1OC(=O)C(C)C", "pest or weed control at 121.5 g/ha", "> 80%"],
  ["COc1ccnc(C(=O)N[C@@H](C)C(=O)O[C@@H](C)[C@@H](c2ccc(C)cc2C)C2CCC2)c1OCOC(C)=O", "pest or weed control at 121.5 g/ha", "> 80%"]
]}

Can you give me pest or weed control at 121.5 g/ha for all of these, one by one?
1. COc1ccnc(C(=O)N[C@@H](C)C(=O)OC(C)[C@H](c2ccccc2)C2CCCC2)c1OC(C)=O (some centres unmarked)
2. COc1ccnc(C(=O)N[C@@H](C)C(=O)O[C@@H](C)[C@@H](c2ccc(F)cc2C)C2CCCC2)c1OC(C)=O
3. COc1ccnc2c(=O)n([C@@H](C)C(=O)O[C@@H](C)[C@@H](c3ccc(C)cc3C)C(C)C)c(=O)oc12
4. COc1ccnc(C(=O)N[C@@H](C)C(=O)O[C@@H](C)[C@H](c2ccc(C)cc2)C(C)C)c1OC(C)=O
5. COc1ccnc(C(=O)N[C@@H](C)C(=O)O[C@@H](C)[C@@H](c2ccc(F)cc2C)C2CCCCC2)c1OC(C)=O
6. COc1ccnc(C(=O)NCC(=O)O[C@@H](C)[C@H](c2ccc(F)cc2C)C(C)C)c1OC(C)=O
7. COc1ccnc(C(=S)N[C@@H](C)C(=O)O[C@@H](C)[C@@H](c2ccccc2)C2CCCC2)c1OC(C)=O
8. COc1ccnc(C(=S)N[C@@H](C)C(=O)OC(C)[C@H](c2ccccc2)C2CCCC2)c1OC(C)=O (some centres unmarked)

Reply |
1: < 80%; 2: < 80%; 3: < 80%; 4: > 80%; 5: < 80%; 6: > 80%; 7: < 0%; 8: < 80%
